Target: GST-Aurora A (Homo sapiens)
Construct: N-terminal GST fusion with full length Aurora A (1-403 amino acids)
Sequence (O14965 whole entry, the tested form may be a part): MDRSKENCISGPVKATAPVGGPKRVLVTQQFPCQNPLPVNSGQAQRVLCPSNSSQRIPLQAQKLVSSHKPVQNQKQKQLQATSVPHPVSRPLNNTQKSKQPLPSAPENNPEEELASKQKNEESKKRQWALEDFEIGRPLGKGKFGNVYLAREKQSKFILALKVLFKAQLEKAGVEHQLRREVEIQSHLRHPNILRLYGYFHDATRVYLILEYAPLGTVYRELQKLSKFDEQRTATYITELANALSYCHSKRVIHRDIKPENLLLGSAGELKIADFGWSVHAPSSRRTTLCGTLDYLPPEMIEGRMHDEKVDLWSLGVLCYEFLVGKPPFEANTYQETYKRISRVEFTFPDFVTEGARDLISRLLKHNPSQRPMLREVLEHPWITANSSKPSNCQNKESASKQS
Assay: Aurora A IC50, Caliper LC3000 mobility shift assay
Settings: LC3000 method; 15 uM ATP (the KM value); read-out: Aurora Kinase A Activity (IC50)
pIC50: −log10 of the molar value.
Give pIC50 for every item shown.

- structure-as-smiles: "COC(=O)c1ccc2c(c1)c(=O)[nH]c1nccc(Nc3ccc(NC(=O)c4ccccc4)cc3)c12"
  experimental-target: "GST-Aurora A (Homo sapiens)"
  pIC50: "> 7.96"
- structure-as-smiles: "O=c1[nH]c2ncccc2c2cc(NCc3ccc4c(c3)OCO4)ccc12"
  experimental-target: "GST-Aurora A (Homo sapiens)"
  pIC50: "< 7.00"
- structure-as-smiles: "O=C(Nc1ccc(Nc2ccnc3[nH]c(=O)c4ccccc4c23)cc1)c1c(F)cccc1F"
  experimental-target: "GST-Aurora A (Homo sapiens)"
  pIC50: "> 7.96"
- structure-as-smiles: "CN(C)C(=O)c1ccc2c(=O)[nH]c3nccc(Nc4ccc(NC(=O)c5ccccc5)cc4)c3c2c1"
  experimental-target: "GST-Aurora A (Homo sapiens)"
  pIC50: "7.00 to 7.96"
- structure-as-smiles: "O=C(Nc1ccc(Nc2ccnc3[nH]c(=O)c4ccccc4c23)cc1)C1(C(F)(F)F)CC1"
  experimental-target: "GST-Aurora A (Homo sapiens)"
  pIC50: "7.00 to 7.96"
- structure-as-smiles: "O=C(CN1CC(Nc2ccnc3[nH]c(=O)c4ccccc4c23)C1)Nc1ccccc1"
  experimental-target: "GST-Aurora A (Homo sapiens)"
  pIC50: "< 7.00"

Provide each entry's pIC50 from the list below.
1. CN1CCN(c2ccc3c(=O)[nH]c4nccc(Nc5ccc(NC(=O)c6ccccc6)cc5)c4c3c2)CC1
2. N#Cc1ccccc1CNc1ccc2c(=O)[nH]c3ncccc3c2c1
3. O=C(CN1CCC(Nc2ccnc3[nH]c(=O)c4ccccc4c23)CC1)Nc1ccc(F)cc1

7.00 to 7.96
< 7.00
7.00 to 7.96

Each molecule below has a reported value. Please supply its pIC50.
1. COc1cccc(F)c1C(=O)Nc1ccc(Nc2ccnc3[nH]c(=O)c4ccccc4c23)cc1
2. O=C(c1cccn(-c2ccc(F)cc2)c1=O)N1CCOc2cc(Oc3ccnc4[nH]c(=O)c5ccccc5c34)ccc21
3. O=C(Cn1cc(Nc2ccnc3[nH]c(=O)c4ccc(F)cc4c23)cn1)Nc1ccc(C(F)(F)F)cc1
4. O=C(Nc1ccc(Oc2ccnc3[nH]c(=O)c4ccccc4c23)cc1)c1cccn(-c2ccc(F)cc2)c1=O

1: > 7.96; 2: < 7.00; 3: 7.00 to 7.96; 4: < 7.00

Batch lookup, pIC50 per entry.
1. O=c1[nH]c2ncccc2c2cc(NCc3ccccc3Cl)ccc12
2. O=C(Nc1ccc(Nc2ccnc3[nH]c(=O)c4ccccc4c23)cc1)c1ccc(F)cc1C(F)(F)F
3. O=C(Nc1ccc(Nc2ccnc3[nH]c(=O)c4ccccc4c23)cc1)c1ccccc1

1: 7.00 to 7.96; 2: > 7.96; 3: > 7.96

Values were extracted from patent US8735584B2.
